# experiment.summary: Cmax in male Sprague-Dawley rat at 5 mg/kg, ip measured after 480 mins by LC-ESI/MS-MS analysis
# Format: ADME, organism-based
# conditions.used: in vivo

[
  {
    "smiles.str": "Cc1ccc2nc(-c3ccc(F)cc3)c(CC(=O)N3CCCC3)n2c1.O=C(O)C(O)C(O)C(=O)O",
    "Cmax": "2.34 µg/mL"
  }
]

====

# experiment.summary: Volume of distribution in male Sprague-Dawley rat plasma at 3 mg/kg, iv measured after 480 mins by LC-ESI/MS-MS analysis
# Assay type: ADME, organism-based
assay.metric: Vd (L/kg)

[
  {
    "smiles.str": "Cc1ccc2nc(-c3ccc(F)cc3)c(CC(=O)N3CCCC3)n2c1.O=C(O)C(O)C(O)C(=O)O",
    "u": "L/kg",
    "recorded.value": 0.383
  }
]

====

# experiment.summary: Permeability across apical to basolateral side in MDCKII-MDR1 cells at pH 7.4
# Type: ADME, cell-based, Canis lupus familiaris
# conditions.used: dog, MDCK-MDR1, pH 7.4; read-out: permeability

[
  {
    "smiles.str": "Cc1ccc2nc(-c3ccc(F)cc3)c(CC(=O)N3CCCC3)n2c1.O=C(O)C(O)C(O)C(=O)O",
    "u": "×10⁻⁶ cm/s",
    "Papp A→B": 55.6
  }
]

====

# experiment.summary: MRT in male Sprague-Dawley rat brain at 3 mg/kg, iv measured after 480 mins by LC-ESI/MS-MS analysis
# Assay type: ADME, organism-based

[
  {
    "smiles.str": "Cc1ccc2nc(-c3ccc(F)cc3)c(CC(=O)N3CCCC3)n2c1.O=C(O)C(O)C(O)C(=O)O",
    "MRT [h]": 1.09
  }
]

====

# experiment.summary: AUC (0 to t) in male Sprague-Dawley rat plasma at 3 mg/kg, ip measured after 480 mins by LC-ESI/MS-MS analysis
# Assay type: ADME, organism-based

[
  {
    "smiles.str": "Cc1ccc2nc(-c3ccc(F)cc3)c(CC(=O)N3CCCC3)n2c1.O=C(O)C(O)C(O)C(=O)O",
    "AUC(0-t) at 8 h (ng·h/mL)": 2140
  }
]

====

# experiment.summary: AUC (0 to t) in male Sprague-Dawley rat at 5 mg/kg, ip measured after 480 mins by LC-ESI/MS-MS analysis
# Type: ADME, organism-based
# conditions.used: in vivo

[
  {
    "smiles.str": "Cc1ccc2nc(-c3ccc(F)cc3)c(CC(=O)N3CCCC3)n2c1.O=C(O)C(O)C(O)C(=O)O",
    "AUC(0-t) at 8 h [ng·h/mL]": 39
  }
]

====

# experiment.summary: MRT in male Sprague-Dawley rat brain at 3 mg/kg, ip measured after 480 mins by LC-ESI/MS-MS analysis
# Type: ADME, organism-based

[
  {
    "smiles.str": "Cc1ccc2nc(-c3ccc(F)cc3)c(CC(=O)N3CCCC3)n2c1.O=C(O)C(O)C(O)C(=O)O",
    "MRT (h)": 1.71
  }
]

====

Recorded solubility thermodynamic at 24 h, one value per entry.
# experiment.summary: Thermodynamic solubility of compound in phosphate buffer at pH 7.4 at 2 mg measured after 24 hrs by HPLC analysis
# Type: physicochemical
# conditions.used: read-out: Therm_solubility

[
  {
    "molecule": "Cc1ccc2nc(-c3ccc(F)cc3)c(CC(=O)N3CCOCC3)n2n1.O=C(O)C(O)C(O)C(=O)O",
    "u": "µg/mL",
    "result.modifier": "=",
    "solubility thermodynamic at 24 h": 1590
  },
  {
    "molecule": "Cc1ccc2nc(-c3ccc(F)cc3)c(CC(=O)N3CCCC3)n2c1.O=C(O)C(O)C(O)C(=O)O",
    "u": "µg/mL",
    "result.modifier": "=",
    "solubility thermodynamic at 24 h": 1870
  },
  {
    "molecule": "Cc1ccc2nc(-c3ccc(F)cc3)c(CC(=O)N(C)C)n2n1.O=C(O)C(O)C(O)C(=O)O",
    "u": "µg/mL",
    "result.modifier": ">",
    "solubility thermodynamic at 24 h": 2000
  },
  {
    "molecule": "Cc1ccc(-c2nc3ccc(C)cn3c2CC(=O)N(C)C)cc1 [ZOLPIDEM]",
    "u": "µg/mL",
    "result.modifier": ">",
    "solubility thermodynamic at 24 h": 2000
  },
  {
    "molecule": "Cc1ccc2nc(-c3ccc(F)cc3)c(CC(=O)N3CCSCC3)n2n1.O=C(O)C(O)C(O)C(=O)O",
    "u": "µg/mL",
    "result.modifier": "=",
    "solubility thermodynamic at 24 h": 320
  },
  {
    "molecule": "COc1ccc(NC(=O)Cc2c(-c3ccc(F)cc3)nc3ccc(C)nn23)cc1.O=C(O)C(O)C(O)C(=O)O",
    "u": "µg/mL",
    "result.modifier": "=",
    "solubility thermodynamic at 24 h": 130
  }
]

====

# experiment.summary: Half-life in human plasma
# Assay type: ADME, cell-free

[
  {
    "smiles.str": "Cc1ccc(-c2nc3ccc(C)cn3c2CC(=O)N(C)C)cc1",
    "half-life": "2 h"
  }
]

====

# experiment.summary: Permeability of compound in PBS buffer at pH7.4 at 100 uM incubated for 5 hrs by UPLC-MS based PAMPA assay
# Assay type: ADME
# conditions.used: pH 7.4, read-out: permeability

[
  {
    "compound": "Cc1ccc2nc(-c3ccc(F)cc3)c(CC(=O)N3CCOCC3)n2n1.O=C(O)C(O)C(O)C(=O)O",
    "Papp at 5 h, 100 µM": "9.99 ×10⁻⁶ cm/s"
  },
  {
    "compound": "COc1ccc(NC(=O)Cc2c(-c3ccc(F)cc3)nc3ccc(C)nn23)cc1.O=C(O)C(O)C(O)C(=O)O",
    "Papp at 5 h, 100 µM": "433 ×10⁻⁶ cm/s"
  },
  {
    "compound": "Cc1ccc2nc(-c3ccc(F)cc3)c(CC(=O)Nc3ccccc3F)n2c1.O=C(O)C(O)C(O)C(=O)O",
    "Papp at 5 h, 100 µM": "6.25 ×10⁻⁶ cm/s"
  },
  {
    "compound": "Cc1ccc2nc(-c3ccc(F)cc3)c(CC(=O)Nc3ccccc3)n2c1.O=C(O)C(O)C(O)C(=O)O",
    "Papp at 5 h, 100 µM": "5.29 ×10⁻⁶ cm/s"
  },
  {
    "compound": "Cc1ccc(-c2nc3ccc(C)cn3c2CC(=O)N(C)C)cc1.Cc1ccc(-c2nc3ccc(C)cn3c2CC(=O)N(C)C)cc1.O=C(O)C(O)C(O)C(=O)O [ZOLPIDEM TARTRATE]",
    "Papp at 5 h, 100 µM": "21.6 ×10⁻⁶ cm/s"
  },
  {
    "compound": "Cn1c(=O)c2c(ncn2C)n(C)c1=O",
    "Papp at 5 h, 100 µM": "15.2 ×10⁻⁶ cm/s"
  },
  {
    "compound": "CCN1CCCC1CNC(=O)c1cc(S(N)(=O)=O)ccc1OC (stereo not drawn) [SULPIRIDE]",
    "Papp at 5 h, 100 µM": "0.016 ×10⁻⁶ cm/s"
  },
  {
    "compound": "Cc1ccc2nc(-c3ccc(F)cc3)c(CC(=O)N3CCCC3)n2n1.O=C(O)C(O)C(O)C(=O)O",
    "Papp at 5 h, 100 µM": "22.9 ×10⁻⁶ cm/s"
  },
  {
    "compound": "COc1ccc(NC(=O)Cc2c(-c3ccc(F)cc3)nc3ccc(C)cn23)cc1.O=C(O)C(O)C(O)C(=O)O",
    "Papp at 5 h, 100 µM": "1.03 ×10⁻⁶ cm/s"
  },
  {
    "compound": "Cc1ccc2nc(-c3ccc(F)cc3)c(CC(=O)N(C)C)n2n1.O=C(O)C(O)C(O)C(=O)O",
    "Papp at 5 h, 100 µM": "9.79 ×10⁻⁶ cm/s"
  },
  {
    "compound": "Cc1ccc2nc(-c3ccc(F)cc3)c(CC(=O)N3CCSCC3)n2n1.O=C(O)C(O)C(O)C(=O)O",
    "Papp at 5 h, 100 µM": "11.7 ×10⁻⁶ cm/s"
  },
  {
    "compound": "Cc1ccc2nc(-c3ccc(F)cc3)c(CC(=O)Nc3ccc(F)cc3)n2c1.O=C(O)C(O)C(O)C(=O)O",
    "Papp at 5 h, 100 µM": "6.06 ×10⁻⁶ cm/s"
  },
  {
    "compound": "Cc1ccc2nc(-c3ccc(F)cc3)c(CC(=O)N3CCCC3)n2c1.O=C(O)C(O)C(O)C(=O)O",
    "Papp at 5 h, 100 µM": "29.7 ×10⁻⁶ cm/s"
  }
]
